These data points were gathered from PubChem BioAssay (NCI).

Test system: NCI/ADR-RES ovarian
assayRemarks: NCI tumour cell line growth inhibition, 48 h; in the data active = GI50 below about 0.43 µM; inactive = the rest
Result category, one only: True for active, False for inactive

Record excerpt, results attached:
Cc1cc2nc3c4cc(N)ccc4n(CCN(C)C)c3nc2cc1C | False
Cc1c(-c2c(-c3ccc(F)o3)sc3ncnc(O[C@H](Cc4ccccc4OCc4ccnn4CC(F)(F)F)C(=O)O)c23)ccc(OCCN2CCN(C)CC2)c1Cl | False
O=c1ccc2nc(-c3ccccc3)nn(-c3ccccn3)c-2c1 | False
COC(=O)c1c2c(c(C)[n+]([O-])c1C)C(=O)C=C(NCc1ccc(F)c(Cl)c1)C2=O | True
O=C1CCCCCCCC/C=C\CC(c2ccco2)O1 (centres undefined) | False
c1ccc2[nH]c(-c3ccc(NN=Nc4ccncc4)cc3)nc2c1 | False
CC1=C2C[C@H]3[C@@H](CC[C@@H]4CC(NS(C)(=O)=O)CC[C@@]43C)[C@@H]2CC[C@@]2(C1)O[C@@H]1C[C@H](C)CN[C@H]1[C@H]2C (some centres undefined) | False
CC[C@H](Nc1nc(NCc2cnc(C)cc2C)c2ncn(C(C)C)c2n1)[C@@H](C)O | False

As a next step, examine the molecule that follows.
// param item: CCOc1ccc(-c2nonc2NC(=O)c2cccc(C)c2)cc1OCC ; yields the recorded call
False
